Recorded growth values for a group of compounds are listed next.
- Test system: BT-549 breast
- EXPERIMENTAL DETAILS: NCI-60 one-dose screen, 48 h (100 = growth as untreated, 0 = no growth, -100 = all killed)
- DETAILS: 10 µM
The panel holds about 83,000 compounds, 20% with a hit somewhere; the sample as a whole holds those more often. Active and inactive are the calls of the source. Rule for the calls: active = growth percent below 10; inactive = the rest.
RESULT TYPE: growth

| MOL SMILES | RESULT |
| --- | --- |
| Cc1ccc(C(=O)Nc2ccc(-n3c(C)nc4c(cnn4-c4ccccc4)c3=O)cc2)cc1 | 59.2% (inactive) |
| CN1CCN(c2ccc(C(=O)/C=C/c3cc(Br)ccc3F)cc2)CC1 | 59.3% (inactive) |
| O=c1oc2ccc(-c3ccc(F)cc3F)cc2c(=O)n1-c1ccc(Cl)c(C(F)(F)F)c1 | -37.4% (active) |
| COc1ccc(C(=O)/C=C/c2cc(F)cc(C(F)(F)F)c2)cc1S(N)(=O)=O | -73% (active) |
| COc1ccc(C(=O)Nc2ccc(-c3ccc4c(c3)NC(=O)/C4=C\c3ccc[nH]3)cc2)cc1 | 88.5% (inactive) |
| COc1cc(/C=C/C(=O)c2ccc(C(F)(F)F)cc2)ccc1Oc1nc(Nc2ccc(F)cc2)nc(N(C)C)n1 | 90.9% (inactive) |
| CN1CCN(c2ccc(C(=O)/C=C/c3ccc(OC(F)F)cc3)cc2)CC1 | 19.2% (inactive) |
| O=C1Nc2ccc(Cl)cc2/C1=C/c1ccc(OCc2ccc(Br)cc2F)cc1 | 81.9% (inactive) |
| Cc1noc2c(Cc3ccccc3)nn(CC(=O)N/N=C/c3ccc(Cl)cc3)c(=O)c12 | 89.4% (inactive) |

====

- Tested on: DU-145 prostate
- EXPERIMENTAL DETAILS: NCI-60 one-dose screen, 48 h (100 = growth as untreated, 0 = no growth, -100 = all killed)
- DETAILS: 10 µM
Compounds without any hit were thinned out: in the full panel of roughly 83,000, 20% have a hit. Activity calls are given as the source filed them. Rule for the calls: active = growth percent below 10; inactive = the rest.
RESULT TYPE: growth

| COMPOUND | RESULT |
| --- | --- |
| Cc1ccn2c(C(=O)c3ccccc3)cc(-c3cc(-c4ccc(N(C)C)cc4)c(C#N)c(N)n3)c2c1 | 56.4% (inactive) |
| N#Cc1ccc(-c2nn(-c3ccc(C(=O)O)cc3)cc2CNc2ccc(Cl)cc2)cc1 | 97.6% (inactive) |
| COc1cc(/C=C/C(=O)c2ccc(NC(=O)CSc3nnc(-c4c[nH]c5ccccc45)n3-c3ccccc3)cc2)cc(OC)c1OC | 79.6% (inactive) |
| N#Cc1c(-c2ccc(Cl)cc2)cc(-c2ccccc2)nc1OCc1ccccc1 | 90.7% (inactive) |
| N#Cc1ccc(-c2nn(-c3ccc(C(=O)O)cc3)cc2CNc2ccc(Oc3ccccc3)cc2)cc1 | 65.4% (inactive) |
| O=C(CSc1nnc(-c2ccc3nc(-c4ccccc4)[nH]c3c2)o1)Nc1ccc(Br)cc1 | 78.2% (inactive) |
| O=C(N=Nc1c(O)[nH]c2ccc(Br)cc12)c1ccc2nc(-c3ccccc3)[nH]c2c1 | -60.5% (active) |
| Clc1ccc(/C=N/Nc2ncnc3sc4c(c23)CCN(Cc2ccccc2)C4)cc1 | 3.38% (active) |
| O=c1oc2ccc(-c3ccc(F)cc3F)cc2c(=O)n1-c1ccc(Cl)c(C(F)(F)F)c1 | 14.2% (inactive) |
| Cc1ccc(/C=C/C(=O)c2ccc(S(=O)(=O)NCCNc3nc(Nc4ccc(F)cc4)nc(N(C)C)n3)cc2)cc1 | 30% (inactive) |
| Cc1nc(Nc2nc(C)c3ccc(OCCN4CCOCC4)cc3n2)[nH]c(=O)c1C | 14.9% (inactive) |
| COC(=O)C[C@](O)(CCCC(C)(C)O)C(=O)O[C@H]1C(OC)=C[C@@]23CCC(=O)N2CCc2cc4c(cc2[C@@H]13)OCO4 | 103% (inactive) |
| COc1ccccc1NCc1ccc(CO)n1-c1ccc(C)cc1 | 111% (inactive) |
| C/C(=C\CC/C=C(\C)CC/C=C(\C)CC[C@@H](O)C(C)(C)O)CC/C=C(\C)CC[C@@H](O)C(C)(C)O | 63.7% (inactive) |
| Cc1nc2c(cnn2-c2ccccc2)c(=O)n1-c1ccc(NC(=O)c2ccc(F)cc2)cc1 | 80.7% (inactive) |
| Cc1cccc2cc(-c3cc(-c4ccccc4)nc(=O)[nH]3)c(Cl)nc12 | 91.7% (inactive) |
| CC(C)(C)Nc1nc2cc(Cl)c(Cl)cc2nc1S(C)(=O)=O | 57.2% (inactive) |
| O=C(Nc1ccc(Cl)c(C(F)(F)F)c1)c1cncc(C#Cc2cnc3ccc(N4CCOCC4)nn23)c1 | 20.6% (inactive) |
| CCCCOc1ccc(Nc2nc3ccccc3nc2Nc2ccc(OCCCC)cc2)cc1 | 87.9% (inactive) |
| CN1CCN(c2ccc(Nc3nc(NCCCNC(=O)C4CCCCC4)c4sccc4n3)cc2)CC1 | 67.5% (inactive) |
| CN1CCc2c(sc3ncnc(N/N=C/c4cn(-c5ccccc5)nc4-c4ccc(Cl)cc4)c23)C1 | 31.4% (inactive) |
| Cc1nn(-c2ccccc2)c2ncn(CC(=O)N/N=C/c3c[nH]c4ccccc34)c(=O)c12 | 99.6% (inactive) |
| CCN1CCN(Cc2ccc(C(=O)Nc3cccc(-c4cn(-c5ccc6oc(=O)ccc6c5)nn4)c3)cc2C(F)(F)F)CC1 | -100% (active) |
| O=C(CSc1nnc(-c2c[nH]c3ccccc23)n1-c1ccccc1)Nc1ccc(C(=O)/C=C/c2ccc(Br)cc2)cc1 | 96.4% (inactive) |
| CC(C)NC(=O)c1cc(-c2ccc(NC(=O)Nc3ccc(N4CCN(C)CC4)c(C(F)(F)F)c3)cc2)nc2cccnc12 | -88.7% (active) |
| CN1C(=O)N(C)C2SC(N/N=C/c3ccccc3F)=NC21 (stereo unspecified) | 94.7% (inactive) |
| CC1(c2ccccc2)NC(=O)N(CC(=O)Nc2ccc(C(=O)/C=C/c3ccc(Br)cc3)cc2)C1=O (stereo unspecified) | 59.8% (inactive) |
| O=C(NO)c1ccc(CN2CCN(c3nc(-c4ccccc4)c4ccccc4n3)CC2)cc1 | 23.1% (inactive) |
| CC(=C(c1ccc(OCCN2CCCCCC2)cc1)c1ccc(OCCN2CCCCCC2)cc1)c1ccc(Cl)cc1 | -96.1% (active) |
| COc1ccc(C(=O)Nc2sc3c(c2C#N)CCC(=O)C3)cc1C(F)(F)F | 25.3% (inactive) |
| Cc1ccc(CNC(=O)Cc2ccc3c(c2)CN(C2CCC(=O)NC2=O)C3=O)cc1 (stereo unspecified) | 30.2% (inactive) |
| CC(=O)c1ccc(Nc2nc(SCCC(C)C)nc(-c3ccc(F)cc3)c2C#N)cc1 | 61.1% (inactive) |
| CN1CCN(Cc2ccc(C(=O)Nc3cccc(Nc4ccc5c(O)cccc5n4)c3)cc2C(F)(F)F)CC1 | -1.97% (active) |
| Cc1cc(C)nc(NS(=O)(=O)c2ccc(N/C(N)=N/c3nccc(-c4ccccc4)n3)cc2)n1 | 88.8% (inactive) |
| O=C1N/C(=N\c2nccs2)S/C1=C\c1cccs1 | 53.2% (inactive) |
| COc1ccc([C@H]2C(C(=O)c3ccc(Cl)cc3)C3(N[C@@H]2c2ccccc2)C(=O)Nc2ccc(Br)cc23)cc1 (stereo partly specified) | 17% (inactive) |
